System: VchCAST RNA-guided transposition machinery (E. coli BL21(DE3) host, lacZ target)
Experiment: relative integration efficiency (T-LR orientation) vs wild-type transposon end (log2 (normalized fold change)); transposon end mutated: right end (5 bp flank + 75 bp right end); higher = more efficient transposition
Measured relative integration efficiency (log2) values are reported for all entries that follow.

residue codes	relative integration efficiency (log2)
ACATTTGTTGATACAACCATAAAATGATAATTACACCCATCAATTGATAATTATCCCACCCAATTTAACTATAACGCTCTGATCATAGTCAGACCAACATTGCTACGACCCGTATTCGCACCGACAC	1.54
ACATTTGTTGATACAACCATAAAATGATAATTAACACCCATAAATTGATAATTATCACACCCATAAATTGATATTGCCTCTGATCATAGTCAGACCAACATTGCTACGACCCGTATTCGCACCGACA	-0.437
ACATTTGTTGATACAACCATATATTGATATCTCCAACCATAAAATGATAATTATCACAACCATAAAGTGATATTTACTCTGATCATAGTCAGACCAACATTGCTACGACCCGTATTCGCACCGACAC	-0.441
ACATTTGTTGATACACCCATAAATTGATAATTACAACCATAAGTTGATATTTTTCACACCCATAAATTGATAATTACTCTGATCATAGTCAGACCAACATTGCTACGACCCGTATTCGCACCGACAC	0.055
ACATTTGTTGATACAACCATAAAAGGATAATTACACCCATAAATTGATAATTATCCCACCCAATTTAACTATAACGCTCTGATCATAGTCAGACCAACATTGCTACGACCCGTATTCGCACCGACAC	1.98
ACATTTGTTGATACAACCATAAAATGATAATTACACCCATAAATTGATAATTCGACACAAACGCCCGGTCGCGGTAAGAGGATCATAGTCAGACCAACATTGCTACGACCCGTATTCGCACCGACAC	3.75
ACATTTGTTGATACAACCATAAAATGATAATTACACCCATAAATTGTATTTTATCACACCCATAAATTGATATTGCCTCTGATCATAGTCAGACCAACATTGCTACGACCCGTATTCGCACCGACAC	-0.327
ACATTTGTTGATACAACCATAAAATCATAATTACCCCCATCAATTGATAATTATCACACCCAATTTAACTATAACGCTCTGATCATAGTCAGACCAACATTGCTACGACCCGTATTCGCACCGACAC	-2.04
ACATTTGTTGATACAACCATAACCTGATAATTACACCCATAACGTGATAATTATCACACCCATAACGTGATATTGCCTCTGATCATAGTCAGACCAACATTGCTACGACCCGTATTCGCACCGACAC	-0.339
ACATTTGTTGATACAACCATAAAATGATAATTACCCCCATAAATTGATAATTGTGACACCGAATTTAACTATAACGCTCTGATCATAGTCAGACCAACATTGCTACGACCCGTATTCGCACCGACAC	1.94
